target: IgG; assay: Affinity to IgG by surface plasmon resonance (SPR); assay type: binding; conditions: Biacore 8K, 25° C., IgG on CM5 chip; read-out: IgG SPR Binding Kd
pKd: −log10 of the molar value. Where a SMILES comes first, the peptide text is derived from it. Bridges are numbered along the chain shown (N, C = ends). [ ]: non-standard residue; d: D form. Pro(4S-NH2) = N[C@@H]1CN[C@H](C(=O)O)C1
READOUT KIND: pKd

// query Quick one: give measured pKd for CC(C)C[C@@H]1NC(=O)[C@H](Cc2cnc[nH]2)NC(=O)[C@H](Cc2c[nH]c3ccccc23)NC(=O)[C@H](C)NC(=O)[C@@H]2CSSC[C@H](NC(=O)[C@H](Cc3c[nH]c4ccccc34)NC(=O)[C@H](C(C)C)NC(=O)[C@H](CC(C)C)NC(=O)[C@H](CCC(=O)N(C)C)NC(=O)CNC1=O)C(=O)N[C@@H]([C@@H](C)O)C(=O)N1CCC[C@@H]1C(=O)N1C[C@@H](N)C[C@H]1C(=O)N[C@@H](CC(N)=O)C(=O)N2 [Intermediate 27] (cyclo(AWHLGE(NMe2)LVWCT[dP][Pro(4S-NH2)]NC); disulfide 10-15)
// result > 7.00
